Target: KRAS-G12D and SOS1 (Homo sapiens, UniProt P01116, G12D)
Construct: purchased
Sequence (P01116 1-188 isoform P01116-2 G12D): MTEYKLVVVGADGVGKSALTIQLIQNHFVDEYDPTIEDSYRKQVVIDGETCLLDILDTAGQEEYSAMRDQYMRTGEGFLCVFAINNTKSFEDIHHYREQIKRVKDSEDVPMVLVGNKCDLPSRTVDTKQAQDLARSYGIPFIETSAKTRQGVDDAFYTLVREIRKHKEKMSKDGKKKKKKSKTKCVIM
Test: Inhibition of KRAS-G12D/SOS1 binding (Cisbio binding kit, 665/615 ratio), Effect Embodiment A
Settings: read-out: GTP-KRAS-G12D:SOS1 IC50
Structures can show the parent of a compound that is named as a salt.
We begin with a simple list: items and their reported IC50.
Field: numeric (nM). Do not append units.

>  <Compound>
Oc1cc(-c2c(Cl)cc3c(N4CC5CCC(C4)N5)nc(OCCN4CCCC(F)C4)nc3c2F)c2ccccc2c1 (single isomer, unassigned) [Compound 267b]

>  <System name>
KRAS-G12D and SOS1 (Homo sapiens, UniProt P01116, G12D)

>  <Recorded measurement>
118

$$$$
>  <Compound>
CN(C)C1CN(c2nc(N3C[C@H]4C[C@@H]3CN4)c3cc(Cl)c(-c4cc(O)cc5ccccc45)c(F)c3n2)C1 (single isomer, unassigned) [Compound 3a]

>  <System name>
KRAS-G12D and SOS1 (Homo sapiens, UniProt P01116, G12D)

>  <Recorded measurement>
1360

$$$$

Please fill in: IC50 reported for CN(C)CCCSc1nc(N2C[C@H]3CC[C@@H](C2)N3)c2cc(Cl)c(-c3cc(O)cc4ccccc34)c(F)c2n1 (single isomer, unassigned) [Compound 147, dihydrochloride] = 605

----------
We begin with a simple list: items and their reported pIC50.
Target: KRAS_G12D and cRAF (Homo sapiens, UniProt P01116, G12D)
Sequence (P01116 1-188 isoform P01116-2 G12D): as above
Assay: Inhibition of KRAS_G12D/cRAF binding (Cisbio binding kit, 665/615 ratio), Effect Embodiment B
Settings: read-out: GTP-KRAS-G12D:CRAF IC50
Description: Similarly, the first dilution point of the compound to be tested was its storage solution, and the solution was 3-fold diluted, with 11+0 points of dilution. Echo was used to transfer 0.2 μL gradient diluted solution of the compounds into a 384-well plate, with 2 duplicated wells for each compound, and the final concentration of DMSO was 1%. The solution was centrifuged for 1 min at 1000 rpm/min. IC50 of the compounds was fitted by Graphpad Prism 8 nonlinear regression equation: […]
// pIC50: -log10(molar conc.)

Reference set, count: 3
>  <Compound>
Oc1cc(-c2c(Cl)cc3c(N4CC5CCC(C4)N5)nc(OCCCN4CC5(CCOC5)C4)nc3c2F)c2ccccc2c1 (single isomer, unassigned)

>  <pIC50>
6.93

$$$$
>  <Compound>
CN1CC(C)(C)C[C@H]1COc1nc(N2CC3CCC(C2)N3)c2cnc(-c3cc(O)cc4ccccc34)c(F)c2n1

>  <pIC50>
6.89

$$$$
>  <Compound>
Oc1cc(-c2c(Cl)cc3c(N4CC5CCC(C4)N5)nc(OCCCN4C5CC6CC4CC(C5)O6)nc3c2F)c2ccccc2c1 (single isomer, unassigned)

>  <pIC50>
6.83

$$$$

Please fill in: pIC50 reported for Oc1cc(-c2c(Cl)cc3c(N4CC5CCC(C4)N5)nc(OCCCN4CC5CCC(C4)O5)nc3c2F)c2ccccc2c1 (single isomer, unassigned) = 6.88

Please fill in: pIC50 reported for CC1OCCN(CCCOc2nc(N3CC4CCC(C3)N4)c3cc(Cl)c(-c4cc(O)cc5ccccc45)c(F)c3n2)C1C (single isomer, unassigned) [Compound 265d] = 6.73

Please fill in: pIC50 reported for Oc1cc(-c2c(Cl)cc3c(N4CC5CCC(C4)N5)nc(OCCCN4CCCC4)nc3c2F)c2ccccc2c1 (single isomer, unassigned) [Compound 63a] = 6.87

Please fill in: pIC50 reported for C[C@@H](COc1nc(N2CC3CCC(C2)N3)c2cc(Cl)c(-c3cc(O)cc4ccccc34)c(F)c2n1)CN1C[C@@H](C)OC[C@@H]1C (single isomer, unassigned) = 6.81

Please fill in: pIC50 reported for CC[C@@H]1CN(CCCOc2nc(N3CC4CCC(C3)N4)c3cc(Cl)c(-c4cc(O)cc5ccccc45)c(F)c3n2)C[C@H](CC)O1 (single isomer, unassigned) = 6.76

----------
We begin with a simple list: items and their reported IC50.
Target: KRAS_G12D and cRAF (Homo sapiens, UniProt P01116, G12D)
Test: Inhibition of KRAS_G12D/cRAF binding (Cisbio binding kit, 665/615 ratio), Effect Embodiment B
Details: read-out: GTP-KRAS-G12D:CRAF IC50
Counter-ions that a name gives are not always drawn.
Field: numeric (nM). Do not append units.

Reference set, count: 5
>  <Molecule>
C[C@H]1CN(CCCOc2nc(N3CC4CCC(C3)N4)c3cc(Cl)c(-c4cc(O)cc5ccccc45)c(F)c3n2)CCO1 (single isomer, unassigned) [Compound 246]

>  <Endpoint>
IC50

>  <Recorded measurement>
218

$$$$
>  <Molecule>
CN1CCC[C@H]1COc1nc(N2C[C@H]3C=C[C@@H](C2)N3)c2cnc(-c3cc(O)cc4ccccc34)c(F)c2n1 [Compound 159, diformate]

>  <Endpoint>
IC50

>  <Recorded measurement>
55.2

$$$$
>  <Molecule>
CN(C)C1CN(c2nc(N3CC4(CCNCC4)C3)c3cc(Cl)c(-c4cc(O)cc5ccccc45)c(F)c3n2)C1 (single isomer, unassigned) [Compound 10a]

>  <Endpoint>
IC50

>  <Recorded measurement>
3230

$$$$
>  <Molecule>
CO[C@H]1CCN(CCCOc2nc(N3CC4CCC(C3)N4)c3cc(Cl)c(-c4cc(O)cc5ccccc45)c(F)c3n2)[C@H](C)C1 (single isomer, unassigned) [Compound 258]

>  <Endpoint>
IC50

>  <Recorded measurement>
219

$$$$
>  <Molecule>
Oc1cc(-c2c(Cl)cc3c(N4CC5CCC(C4)N5)nc(OCCCN4CCC5(CC4)COC5)nc3c2F)c2ccccc2c1 (single isomer, unassigned) [Compound 262]

>  <Endpoint>
IC50

>  <Recorded measurement>
141

$$$$

Please fill in: IC50 reported for Oc1cc(-c2c(Cl)cc3c(N4C[C@H]5CC[C@@H](C4)N5)nc(OCCCN4C[C@H]5C[C@@H]4CO5)nc3c2F)c2ccccc2c1 (single isomer, unassigned) [Compound 169, dihydrochloride] = 71.3

Please fill in: IC50 reported for Oc1cc(-c2c(Cl)cc3c(N4CC5CCC(C4)N5)nc(OCC(CN4C5CCC4COC5)C4CC4)nc3c2F)c2ccccc2c1 (single isomer, unassigned) [Compound 209a] = 59.4

Please fill in: IC50 reported for CN(C)C1CCC(Oc2nc(N3CC4CCC(C3)N4)c3cc(Cl)c(-c4cc(O)cc5ccccc45)c(F)c3n2)C1 (single isomer, unassigned) [Compound 70b, dihydrochloride] = 515

Please fill in: IC50 reported for Oc1cc(-c2c(Cl)cc3c(N4CC5CCC(C4)N5)nc(OCCCN4C5CCC4COC5)nc3c2F)c2c(F)c(F)ccc2c1 (single isomer, unassigned) [Compound 248] = 67.2

Please fill in: IC50 reported for C[C@@H](COc1nc(N2CC3CCC(C2)N3)c2cc(Cl)c(-c3cc(O)cc4ccccc34)c(F)c2n1)CN(C)C (single isomer, unassigned) [Compound 203] = 33.9

Please fill in: IC50 reported for CN1CCN(CCCOc2nc(N3CC4CCC(C3)N4)c3cc(Cl)c(-c4cc(O)cc5ccccc45)c(F)c3n2)CC1 (single isomer, unassigned) [Compound 99, dihydrochloride] = 168

Please fill in: IC50 reported for CN(CCCCN1CCNCC1)CCCOc1nc(N2C[C@H]3CC[C@@H](C2)N3)c2cc(Cl)c(-c3cc(O)cc4ccccc34)c(F)c2n1 (single isomer, unassigned) [Compound 103] = 120

Please fill in: IC50 reported for CO[C@H](COc1nc(N2CC3CCC(C2)N3)c2cc(Cl)c(-c3cc(O)cc4ccccc34)c(F)c2n1)CN1C2CCC1COC2 (single isomer, unassigned) [Compound 184] = 461

----------
Target: KRAS_G12D and cRAF (Homo sapiens, UniProt P01116, G12D)
Assay: Inhibition of KRAS_G12D/cRAF binding (Cisbio binding kit, 665/615 ratio), Effect Embodiment B
Details: read-out: GTP-KRAS-G12D:CRAF IC50
We begin with a simple list: items and their reported IC50.
Field: numeric (nM). Do not append units.

Reference set, count: 2
>  <Compound>
CC1OCCN(CCCOc2nc(N3CC4CCC(C3)N4)c3cc(Cl)c(-c4cc(O)cc5ccccc45)c(F)c3n2)C1C (single isomer, unassigned) [Compound 265a]

>  <IC50 / nM>
286

$$$$
>  <Compound>
C[C@H]1CCCCN1CCOc1nc(N2CC3CCC(C2)N3)c2cc(Cl)c(-c3cc(O)cc4ccccc34)c(F)c2n1 (single isomer, unassigned) [Compound 268]

>  <IC50 / nM>
346

$$$$

Shifting focus to the compound that follows.
Lab note: compound Oc1cc(-c2c(Cl)cc3c(N4CC5CCC(C4)N5)nc(OCC(CN4C5CCC4COC5)C4CC4)nc3c2F)c2ccccc2c1 (single isomer, unassigned) [Compound 209b] tested on KRAS_G12D and cRAF (Homo sapiens, UniProt P01116, G12D); recorded IC50 was 293
